Test system: L1210 leukemia ip in BDF1 mice, survival T/C
Procedure Summary: NCI In Vivo Anticancer Drug Screen. Data for tumor model L1210 Leukemia (intraperitoneal) in B6D2F1 (BDF1) mice
Assay Context: endpoint: mean survival time; dose: 200.0 mg/kg/injection; schedule: Q01DX001 (ip); vehicle: Klucel (hydroxypropylcellulose) (HPC); higher = longer survival
Experimental: The antitumor activity of compounds was measured in mice bearing transplantable tumors. Survival or tumor size were measured and the results are expressed as the measurement made in the treated group (T) divided by the measurement made in the vehicle treated control group (C). The tumor model used in this assay is L1210 Leukemia (intraperitoneal) in B6D2F1 (BDF1) mice
Toxic doses and inconclusive results are not listed.
Parameter Measured: T/C

1) COC(=O)c1cc2c(cc1N=Cc1ccccc1Cl)OCO2	95 % of control
2) O=C1CC2CC(=O)CC2C1 (stereo not given)	97 % of control
3) CC12CCC3c4ccc(O)c(N)c4CCC3C1CCC2=O (stereo not given)	102 % of control
4) CC(C)C1CCC(NC(=O)Nc2ccccc2)CC1 (stereo not given)	101 % of control
5) CCOC(=O)c1ccc(CCCCl)cc1	88 % of control
6) BrCC1(c2ccccc2)OCCO1	92 % of control
7) Clc1ccc(SCC#CCOc2ccc(Cl)cc2Cl)cc1	95 % of control
8) O=C(COc1ccc(Cl)cc1C(=O)O)NCc1ccc(NC(=O)Nc2ccc(S(=O)(=O)F)cc2Cl)cc1	93 % of control
9) Cc1ccc(C(=O)C2OC2c2ccccc2)cc1 (stereo not given)	95 % of control
10) O=C(NCCCl)NC1CCCc2ccccc21 (stereo not given)	91 % of control
11) O=C(Nc1ccc([N+](=O)[O-])cn1)Nc1cc([N+](=O)[O-])ccc1F	100 % of control
12) Cc1cc(C)n(/N=C/c2ccccn2)c(=O)c1C#N	97 % of control
13) CSCC(NC(C)=O)C(=O)O (stereo not given)	91 % of control
14) CN(C)CCCN=NNc1nc[nH]c1C(N)=O	91 % of control
15) Cc1ncc(CO)c(Nc2ccccc2)n1	108 % of control

----------
Tested on: L1210 leukemia ip in BDF1 mice, survival T/C
Procedure Summary: NCI In Vivo Anticancer Drug Screen. Data for tumor model L1210 Leukemia (intraperitoneal) in B6D2F1 (BDF1) mice
Assay Context: endpoint: mean survival time; dose: 100.0 mg/kg/injection; schedule: Q04DX003 (ip); vehicle: Klucel (hydroxypropylcellulose) (HPC); higher = longer survival
Inconclusive results and toxic doses are left out.
Here the recorded T/C is given for each entry.
Parameter Measured: T/C

1. O=C(COc1ccc(Cl)cc1Cl)NCCO	98 % of control
2. O=C1Nc2ccc(Cl)cc2C(c2ccccc2)=NC1O (configuration not stated)	104 % of control
3. CCCCCCCCOC(=O)c1ccccc1C(=O)OCCCCCCCC	97 % of control
4. O=S(=O)(Cc1ccccc1)CC(Cl)c1ccccc1 (configuration not stated)	97 % of control
5. COc1cccc(CC(=O)C(=O)O)c1	97 % of control
6. O=c1nc2n(O)cccc-2c(=O)[nH]1	96 % of control
7. CC(=O)NNc1ccccc1Cl	96 % of control
8. CC1SCC(=O)CS1	91 % of control
9. O=CCSC(=S)NNc1ccccc1	88 % of control
10. Clc1ccc2nsnc2c1Cl	95 % of control
11. O=C1OC(c2ccccc2)=N/C1=C/c1cccs1	98 % of control
12. CC(=O)ONc1nc(C)c(CCC2OCCO2)c(=O)[nH]1	105 % of control
